experiment: reduction of polyQ htt aggregates in cells – imaging, exon1htt(103Q)mCFP cells, high-content imaging, primary screen (AID 483); settings: exon1htt(103Q)mCFP cell line, aggregate imaging, at 2 µM; hits give high values;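 also: compound exposure lasted 3 days before fixation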
Activity calls are given as the source filed them.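 The calls were made as follows: active = visual image review flags a hit and inhibition of aggregation exceeds 20%; inconclusive = visual hit but inhibition at or below 20%; inactive = no hit on visual image review.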
Overview of reported inhibition of aggregation across a group of compounds:
measurement_type: inhibition of aggregation

>>> df
                                    compound     value_measured
 0  Cc1cnc(NC(=O)CSc2nnc(COc3c(C)cccc3C)o2)s1   -2.5% (inactive)
 1  Cn1c(C(=O)NCCCN2CCCCCC2)cc2c(=O)n(C)c3ccccc3c21  -31.5% (inactive)
 2          CCCCn1nnc(NC(=O)Cc2ccc(Cl)cc2)n1   23.9% (inactive)
 3  O=C(c1ccc(CNS(=O)(=O)c2cccc(C(F)(F)F)c2)cc1)N1CCOCC1   -1.6% (inactive)
 4  CC1(C)C(c2ccccc2)=NC(c2ccccc2)N1O (stereo unspecified)    1.2% (inactive)
 5  Cc1ccc(C(=O)CC2(O)C(=O)N(C)c3ccc(Br)cc32)c(C)c1 (stereo unspecified)   -6.2% (inactive)
 6  COc1ccc(N(C(=O)c2ccco2)C(C(=O)NC2CCCC2)c2ccc(N(C)C)cc2)cc1OC (stereo unspecified)  -35.5% (inactive)
 7     CCCOc1ccccc1NC(=O)c1c(-c2ccccc2)noc1C    8.8% (inactive)
 8  O=C(C1CCN(S(=O)(=O)c2cccc3cccnc23)CC1)N1CCN(C2CCCCC2)CC1    3.3% (inactive)
 9  COc1ccc(OCC(O)Cn2c(Br)nc3c2c(=O)[nH]c(=O)n3C)cc1 (stereo unspecified)   15.5% (inactive)
10        CCOC(=O)CC(=O)c1cc(OC)c(OC)c(OC)c1   -4.2% (inactive)
11      CCOCCc1nnc(NC(=O)c2ccc(OC)c(OC)c2)s1  -18.6% (inactive)
12  O=C1c2ccccc2NC2CCCCCN12 (stereo unspecified)    -11% (inactive)
13    COC(=O)c1cc(Br)c(=O)n(-c2ccc(OC)cc2)c1  -13.6% (inactive)
14  COc1cc(C(=O)Nc2ccc(-n3cnnn3)c(C)c2)cc(OC)c1OC   11.6% (inactive)
15          Cc1cc(Cl)ccc1OCC(=O)Nn1c(C)ccc1C   -6.4% (inactive)
16      CC1CCN(C(=O)CCNS(=O)(=O)c2ccccc2)CC1  -20.3% (inactive)
17  Cc1ccc(-n2c3c(cc(C(=O)NCCCN4CCOCC4)c2=O)C(=O)CC(C)(C)C3)cc1   -1.3% (inactive)
18  CCc1[nH]nc2c1C(c1ccncc1)C(C#N)=C(N)O2 (stereo unspecified)     -6% (inactive)
19  CC1(C)CC(=O)C2=C(C1)NC(=O)CC2C(=O)NCc1ccc(F)cc1 (stereo unspecified)   -1.8% (inactive)
20  COc1ccc2nc(CC(C)(C)CC(=O)O)c[n+]([O-])c2c1   -0.5% (inactive)
21  CCN1CCN(C(c2cccs2)C(C)NC(=O)c2ccccc2)CC1 (stereo unspecified)   -7.7% (inactive)
22  CN1CCN(CC(=O)N2c3ccccc3C(C)(c3ccccc3)CC2(C)C)CC1 (stereo unspecified)  -16.5% (inactive)
23  N=c1c(C(=O)NCc2ccc3c(c2)OCO3)cc2c(=O)n3ccccc3nc2n1Cc1cccnc1  -21.7% (inactive)
24  O=C(CSc1n[nH]c(-c2cccs2)n1)N1CCN(S(=O)(=O)c2ccccc2)CC1    4.1% (inactive)
25  Cc1ccc(C(c2sc3nc(C)nn3c2O)N2CC(C)OC(C)C2)cc1 (stereo unspecified)  -30.3% (inactive)
26  CN1CCN(C(=O)c2ccc3c(=O)n(CCc4ccccc4)c(=S)[nH]c3c2)CC1   -0.8% (inactive)
27  COc1ccc(S(=O)(=O)n2nc(OC(=O)c3ccc(C)cc3)cc2N)cc1   -9.1% (inactive)
28        CCC(=O)Nc1cc2nn(-c3ccccc3)nc2cc1Cl    7.1% (inactive)
29              Clc1ccc2nc(N3CCCCC3)[nH]c2c1   11.3% (inactive)
30  Cc1ccc(Cn2c(CN3CCOCC3)nc3c2c(=O)n(C)c(=O)n3C)cc1   16.7% (inactive)
31  Cc1ccccc1N(C)S(=O)(=O)c1ccc2[nH]cc(C(=O)NCC3CCCO3)c(=O)c2c1 (stereo unspecified)   17.8% (inactive)
32  CC(=O)Nc1ccc(NC(=O)Cn2cc3c(n2)CCC(C)C3)cc1 (stereo unspecified)    3.5% (inactive)
33  Cc1nn(C)c(C)c1CNC(=O)c1cc2n(n1)C(C(F)(F)F)CC(c1cccs1)N2 (stereo unspecified)  -16.5% (inactive)
34                           Oc1ccc2cccnc2c1  -15.8% (inactive)
35  CC1CN(C(=O)CSc2nnc(-c3ccncc3)n2-c2ccccc2)CC(C)O1 (stereo unspecified)      4% (inactive)
36  Cc1c(C(=O)OCCOC(C)C)[nH]c2c1C(=O)CC(c1ccco1)C2 (stereo unspecified)   -3.7% (inactive)
37  CC1(C)NC(=O)N(CC(O)CN2CCCCC2)C1=O (stereo unspecified)   10.5% (inactive)
38     Cc1nnc(SCc2cc(=O)[nH]c(N3CCCCC3)n2)s1    0.6% (inactive)
39  CCOC(=O)c1ccc2ncc(C(=O)OCC)c(NCCN(C)C)c2c1   -5.5% (inactive)
40  O=C(CN1CCCN(S(=O)(=O)c2ccc(F)cc2)CC1)Nc1ccccc1Br      2% (inactive)
